Molecular target: PI3Kα (p110α/p85α) (Homo sapiens, UniProt P42336)
Sequence (P42336 whole entry): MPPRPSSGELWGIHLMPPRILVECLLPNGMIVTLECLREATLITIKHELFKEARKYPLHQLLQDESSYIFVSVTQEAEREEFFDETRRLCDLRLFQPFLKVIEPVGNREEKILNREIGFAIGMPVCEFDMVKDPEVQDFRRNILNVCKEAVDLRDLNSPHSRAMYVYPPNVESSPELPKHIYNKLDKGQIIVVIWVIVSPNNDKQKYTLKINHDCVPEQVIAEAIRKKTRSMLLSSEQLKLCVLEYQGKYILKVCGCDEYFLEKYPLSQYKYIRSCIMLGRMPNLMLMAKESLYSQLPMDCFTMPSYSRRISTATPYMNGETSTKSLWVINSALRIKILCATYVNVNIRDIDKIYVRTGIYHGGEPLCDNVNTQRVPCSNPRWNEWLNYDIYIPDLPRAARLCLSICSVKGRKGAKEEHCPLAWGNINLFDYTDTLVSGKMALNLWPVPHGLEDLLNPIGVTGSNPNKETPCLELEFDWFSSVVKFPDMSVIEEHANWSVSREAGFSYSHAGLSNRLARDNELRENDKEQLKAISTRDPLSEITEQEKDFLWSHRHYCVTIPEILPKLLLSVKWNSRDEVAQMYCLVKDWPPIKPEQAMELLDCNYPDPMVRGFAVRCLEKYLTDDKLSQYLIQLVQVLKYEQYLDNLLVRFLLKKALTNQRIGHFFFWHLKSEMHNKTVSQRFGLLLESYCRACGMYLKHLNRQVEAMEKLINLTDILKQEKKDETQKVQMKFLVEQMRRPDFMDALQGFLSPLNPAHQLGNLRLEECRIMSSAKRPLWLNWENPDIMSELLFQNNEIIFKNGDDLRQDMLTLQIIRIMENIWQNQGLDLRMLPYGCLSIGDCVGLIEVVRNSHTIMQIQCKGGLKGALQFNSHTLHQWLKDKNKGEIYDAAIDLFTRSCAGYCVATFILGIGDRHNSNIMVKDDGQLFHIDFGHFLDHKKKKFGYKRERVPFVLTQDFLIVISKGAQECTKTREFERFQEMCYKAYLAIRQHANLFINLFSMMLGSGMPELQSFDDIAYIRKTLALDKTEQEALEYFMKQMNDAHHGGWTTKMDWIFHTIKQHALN
Sequence (P27986 whole entry partner): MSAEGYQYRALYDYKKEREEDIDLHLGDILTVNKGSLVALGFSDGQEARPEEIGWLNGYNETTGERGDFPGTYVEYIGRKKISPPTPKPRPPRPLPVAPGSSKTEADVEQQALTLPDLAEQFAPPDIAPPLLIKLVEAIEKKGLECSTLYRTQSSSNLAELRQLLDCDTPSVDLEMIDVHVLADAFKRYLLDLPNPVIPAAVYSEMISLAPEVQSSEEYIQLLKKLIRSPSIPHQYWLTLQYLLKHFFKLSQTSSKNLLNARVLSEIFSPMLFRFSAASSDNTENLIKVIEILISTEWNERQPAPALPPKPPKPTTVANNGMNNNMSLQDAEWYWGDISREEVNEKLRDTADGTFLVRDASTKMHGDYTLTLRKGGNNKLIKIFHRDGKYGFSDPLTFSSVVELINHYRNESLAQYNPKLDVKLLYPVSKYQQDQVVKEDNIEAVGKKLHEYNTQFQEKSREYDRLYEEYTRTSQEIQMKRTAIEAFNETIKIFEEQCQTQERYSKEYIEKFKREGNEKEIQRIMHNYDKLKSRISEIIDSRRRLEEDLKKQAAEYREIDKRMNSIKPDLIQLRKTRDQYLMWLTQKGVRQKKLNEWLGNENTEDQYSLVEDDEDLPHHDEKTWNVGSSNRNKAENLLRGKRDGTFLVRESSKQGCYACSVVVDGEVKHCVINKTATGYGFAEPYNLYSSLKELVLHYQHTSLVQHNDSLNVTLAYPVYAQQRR
Assay: HTRF assay, potency against active PI3Kα
Details: HTRF; [ATP]=50 μM, [di-C8-PIP2]=10 μM; 30 min pre-incubation; read-out: PI3Kα Inhibition
Assay readout: IC50

Example molecules with recorded IC50:
Molecule: CC(C)=CC(=O)CCCCC#Cc1cc(-c2cccc3[nH]ncc23)nc(N2CCOCC2)c1 [XII-7]
IC50: > 1000 nM
--
Molecule: O=C(/C=C/C1CC1)CCC(=O)N1CCN(Cc2cc3nc(-c4cccc5[nH]ncc45)nc(N4CCOCC4)c3s2)CC1 [II-a-55]
IC50: 10 to 100 nM
--
Molecule: O=C(/C=C/c1cnc[nH]1)NCC12CCC(c3cc4nc(-c5cccc6[nH]ncc56)nc(N5CCOCC5)c4s3)(CC1)OC2 [II-a-177]
IC50: 100 to 1000 nM
--
Molecule: C=CC(=O)Nc1ccc(OCc2cc3nc(-c4cnc(N)nc4)nc(N4CCOCC4)c3s2)cc1 [II-a-172]
IC50: 100 to 1000 nM
--
Molecule: C=CC(=O)Nc1ccc(CNC(=O)c2cc(-c3cnc(N)nc3C)nc(N3CCOCC3)c2)cc1 [XII-17]
IC50: > 1000 nM
--
Molecule: C=CC(=O)N(C)CC(=O)N1CCC(n2nc(-c3ccc(OC)c(OC)c3)c3c(N)ncnc32)CC1 [XI-2]
IC50: > 1000 nM
--
Molecule: C=CC(=O)N1CCN(CC#Cc2cc3nc(-c4cccc(O)c4)nc(N4CCOCC4)c3s2)CC1 [II-a-47]
IC50: 10 to 100 nM

Form field: reported IC50 of C/C=C/C(=O)CCC(=O)N1CCN(Cc2cc3nc(-c4cnc(N)nc4)nc(N4CCOCC4)c3s2)CC1 [II-a-112]
10 to 100 nM

Provenance of the data: patent US20110230476A1
